- tested.on: METTL3/14 (Homo sapiens)
- Construct: The enzyme used was full-length his-tagged METTL3; His; made in house
- Sequence (Q86U44 whole entry): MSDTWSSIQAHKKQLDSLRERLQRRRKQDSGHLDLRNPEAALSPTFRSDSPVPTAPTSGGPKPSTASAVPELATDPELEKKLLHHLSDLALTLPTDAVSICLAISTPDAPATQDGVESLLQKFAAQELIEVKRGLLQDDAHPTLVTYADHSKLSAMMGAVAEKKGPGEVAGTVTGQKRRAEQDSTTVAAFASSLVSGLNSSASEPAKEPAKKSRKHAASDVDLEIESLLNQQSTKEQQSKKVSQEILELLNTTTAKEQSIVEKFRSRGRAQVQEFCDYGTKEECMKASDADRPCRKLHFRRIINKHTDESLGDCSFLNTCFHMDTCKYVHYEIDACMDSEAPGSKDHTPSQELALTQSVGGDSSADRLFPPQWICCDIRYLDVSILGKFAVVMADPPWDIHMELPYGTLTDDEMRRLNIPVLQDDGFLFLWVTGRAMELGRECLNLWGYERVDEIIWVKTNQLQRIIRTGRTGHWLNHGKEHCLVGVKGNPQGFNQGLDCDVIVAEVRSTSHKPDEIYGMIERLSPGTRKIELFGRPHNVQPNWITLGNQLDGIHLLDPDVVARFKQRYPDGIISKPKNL
- Sequence (Q9HCE5 whole entry partner): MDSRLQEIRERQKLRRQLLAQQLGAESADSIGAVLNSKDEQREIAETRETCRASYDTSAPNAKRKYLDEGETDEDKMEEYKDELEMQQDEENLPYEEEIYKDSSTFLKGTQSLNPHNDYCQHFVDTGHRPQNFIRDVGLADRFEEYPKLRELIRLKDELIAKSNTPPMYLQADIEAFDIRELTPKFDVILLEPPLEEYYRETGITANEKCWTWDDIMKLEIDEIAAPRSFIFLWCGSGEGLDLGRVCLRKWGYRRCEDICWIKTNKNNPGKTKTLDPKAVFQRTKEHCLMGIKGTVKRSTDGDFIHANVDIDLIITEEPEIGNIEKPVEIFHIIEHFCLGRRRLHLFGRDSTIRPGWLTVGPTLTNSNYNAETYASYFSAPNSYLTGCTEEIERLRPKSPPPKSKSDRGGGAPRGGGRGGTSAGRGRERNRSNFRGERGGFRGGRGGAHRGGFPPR
- experiment.description: METTL3/14 methyltransferase assay (METTL3_14 RFMS, RapidFire mass spectrometry)
- Assay type: biochemical
- test.settings: 5 nM METTL3/14, 0.2 μM RNA substrate, 0.5 μM SAM; lower limit of the assay IC50=5 nM; Compounds 266-351; read-out: METTL3_14 RFMS IC50
pIC50: −log10 of the molar value.
Binary call on pIC50: 1 (yes) from 6 upward, 0 (no) beneath that.

Please review the following examples before continuing.
# compound, label.class
data = [
    ("Cc1ccc2nc(C(C)(O)c3cnc(-c4cccc5[nH]ncc45)s3)cn2c1 (centres unmarked) [Example 335]", "0 (no)"),
    ("Fc1ccc(-c2cn(Cc3cn4cc(CNCC5CCCCC5)ccc4n3)nn2)c2cn[nH]c12 [Example 307]", "1 (yes)"),
    ("O=C(NCc1cn2cc(CNCC3(O)CCC3)ccc2n1)c1cc(=O)n2ccccc2n1 [Compound 288]", "1 (yes)"),
]

## Task pIC50 >= 6 for COC(C)(C)CNCc1ccc2nc(CNC(=O)c3cc(=O)n4ccccc4n3)cn2c1 [Compound 281] ?
## Result 1 (yes)

----------
Recorded pIC50 values for a group of compounds are listed next.
- tested.on: METTL3/14 (Homo sapiens)
- Construct: The enzyme used was full-length his-tagged METTL3; His; made in house
- experiment.description: METTL3/14 methyltransferase assay (METTL3_14 RFMS, RapidFire mass spectrometry)
- Format: biochemical
- test.settings: 5 nM METTL3/14, 0.2 μM RNA substrate, 0.5 μM SAM; lower limit of the assay IC50=5 nM; Compounds 1-62; read-out: METTL3_14 RFMS IC50
On this scale, pIC50 is minus log10 of a concentration expressed in M (mol/L).

# compound, value.measured
rows = [
    ("O=C(NCc1cn2cc(C(O)c3ccccc3)ccc2n1)c1cc(=O)n2ccccc2n1 (stereo not drawn)", 6.02),
    ("N#Cc1ccc2nc(CNC(=O)c3cc(=O)n4ccccc4n3)cn2c1", 5.73),
    ("CC(=O)NCc1ccc2nc(CNC(=O)c3cccc4[nH]ncc34)cn2c1", 5.13),
]

Now look at this entry.
## Task Return the recorded pIC50 value; entry: COc1ccn2c(=O)cc(C(=O)NCc3cn4cc(C)ccc4n3)nc2c1
## Result 5.59

----------
- tested.on: METTL3/14 (Homo sapiens)
- Construct: The enzyme used was full-length his-tagged METTL3; His; made in house
- experiment.description: METTL3/14 methyltransferase assay (METTL3_14 RFMS, RapidFire mass spectrometry);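 note: recombinant His-tagged METTL3 with FLAG-tagged METTL14 from baculovirus, SAH product quantified by mass spectrometry against isotope-labelled internal standards, 60 min at room temperature, scaled between no-RNA and DMSO-only wells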
- Type: biochemical
- test.settings: 5 nM METTL3/14, 0.2 μM RNA substrate, 0.5 μM SAM; lower limit of the assay IC50=5 nM; Compounds 1-62; read-out: METTL3_14 RFMS IC50
Please use the following IC50 ranges when assigning a class: bottom (below 3 µM), middle (3 µM to below 7 µM), top (7 µM or more)

Please review the following examples before continuing.
# molecule, label.class
data = [
    ("Cc1ccc2nc(C(CO)NC(=O)c3cccc4[nH]ncc34)cn2c1 (stereo not drawn)", "top"),
    ("O=C(NCc1cn2cc(CO)ccc2n1)c1cccc2[nH]ncc12", "middle"),
    ("Cc1cccn2cc(CNC(=O)c3cc(=O)n4ccccc4n3)nc12", "middle"),
]

## Task Form field 'band' for Cc1ccc2nc(CNC(=O)c3cc(-c4ccn[nH]4)cc4[nH]ncc34)cn2c1
## Result middle

## Task Form field 'band' for O=C(NCc1cn2cc(CNCCO)ccc2n1)c1cccc2[nH]ncc12
## Result bottom

## Task Form field 'band' for Cc1ccc2nc(CNC(=O)c3ccc4[nH]ncc4c3)cn2c1
## Result top

## Task Form field 'band' for Cc1ccc2nc(CNC(=O)c3cc(=O)n4ccccc4n3)cn2c1
## Result bottom

## Task Form field 'band' for Cc1ccn2cc(CNC(=O)c3cc(Br)cc4[nH]ncc34)nc2c1
## Result middle
